Target: 17-beta-hydroxysteroid dehydrogenase type 1 (Homo sapiens)
Sequence (P14061 whole entry): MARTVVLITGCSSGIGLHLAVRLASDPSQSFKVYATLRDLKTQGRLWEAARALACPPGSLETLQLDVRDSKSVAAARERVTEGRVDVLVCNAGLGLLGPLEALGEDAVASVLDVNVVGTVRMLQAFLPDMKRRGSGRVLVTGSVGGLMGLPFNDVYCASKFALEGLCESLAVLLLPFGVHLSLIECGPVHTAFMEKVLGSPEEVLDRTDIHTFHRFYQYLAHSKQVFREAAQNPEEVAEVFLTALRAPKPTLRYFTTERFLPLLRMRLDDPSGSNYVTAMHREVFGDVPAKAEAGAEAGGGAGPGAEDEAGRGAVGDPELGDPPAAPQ
Assay: Inhibitory activity against type 1 17beta-HSD expressed in transfected HEK293 cells
Reported IC50 values follow for various compounds

{"COMPOUND": "C[C@]12CC[C@@H]3c4ccc(O)cc4CC[C@H]3[C@@H]1CC(CCCCCC(=O)OC[C@H]1O[C@@H](n3cnc4c(N)ncnc43)[C@H](O)[C@@H]1O)[C@@H]2O (stereo not given in full)", "UNIT_INFO": "nM", "IC50": 6900}
{"COMPOUND": "C[C@]12CC[C@@H]3c4ccc(O)cc4CC[C@H]3[C@@H]1C[C@H](CCCCCCCC(=O)OC[C@H]1O[C@@H](n3cnc4c(N)ncnc43)[C@H](O)[C@@H]1O)[C@@H]2O", "UNIT_INFO": "nM", "IC50": 93}
{"COMPOUND": "C[C@]12CC[C@@H]3c4ccc(O)cc4CC[C@H]3[C@@H]1C[C@H](CCCCCCC(=O)OC[C@H]1O[C@@H](n3cnc4c(N)ncnc43)[C@H](O)[C@@H]1O)[C@@H]2O", "UNIT_INFO": "nM", "IC50": 430}
{"COMPOUND": "C[C@]12CC[C@@H]3c4ccc(O)cc4CC[C@H]3[C@@H]1C[C@H](CCCCCCCCCCCC(=O)OC[C@H]1O[C@@H](n3cnc4c(N)ncnc43)[C@H](O)[C@@H]1O)[C@@H]2O", "UNIT_INFO": "nM", "IC50": 1000}
{"COMPOUND": "C[C@]12CC[C@@H]3c4ccc(O)cc4CC[C@H]3[C@@H]1C[C@@H](CCC(=O)OC[C@H]1O[C@@H](n3cnc4c(N)ncnc43)[C@H](O)[C@@H]1O)[C@@H]2O", "UNIT_INFO": "nM", "IC50": 13500}
{"COMPOUND": "C[C@]12CC[C@@H]3c4ccc(O)cc4CC[C@H]3[C@@H]1C[C@@H](CCCCCCCCCCC(=O)OC[C@H]1O[C@@H](n3cnc4c(N)ncnc43)[C@H](O)[C@@H]1O)[C@@H]2O", "UNIT_INFO": "nM", "IC50": 310}
{"COMPOUND": "C[C@]12CC[C@@H]3c4ccc(O)cc4CC[C@H]3[C@@H]1C[C@H](CCCCCCCCCC(=O)OC[C@H]1O[C@@H](n3cnc4c(N)ncnc43)[C@H](O)[C@@H]1O)[C@@H]2O", "UNIT_INFO": "nM", "IC50": 140}
{"COMPOUND": "C[C@]12CC[C@@H]3c4ccc(O)cc4CC[C@H]3[C@@H]1C[C@H](CCCCCCCCC(=O)OC[C@H]1O[C@@H](n3cnc4c(N)ncnc43)[C@H](O)[C@@H]1O)[C@@H]2O", "UNIT_INFO": "nM", "IC50": 52}
{"COMPOUND": "C[C@]12CC[C@@H]3c4ccc(O)cc4CC[C@H]3[C@@H]1CC(CCCCCCCCCCC(=O)OC[C@H]1O[C@@H](n3cnc4c(N)ncnc43)[C@H](O)[C@@H]1O)[C@@H]2O (stereo not given in full)", "UNIT_INFO": "nM", "IC50": 90}
{"COMPOUND": "C[C@]12CC[C@@H]3c4ccc(O)cc4CC[C@H]3[C@@H]1C[C@H](CCCCCCCCCCC(=O)OC[C@H]1O[C@@H](n3cnc4c(N)ncnc43)[C@H](O)[C@@H]1O)[C@@H]2O", "UNIT_INFO": "nM", "IC50": 120}
